This collection of values is drawn from paper PMC9841589.

Target: UniProtKB P35354
Sequence (P35354 18-604): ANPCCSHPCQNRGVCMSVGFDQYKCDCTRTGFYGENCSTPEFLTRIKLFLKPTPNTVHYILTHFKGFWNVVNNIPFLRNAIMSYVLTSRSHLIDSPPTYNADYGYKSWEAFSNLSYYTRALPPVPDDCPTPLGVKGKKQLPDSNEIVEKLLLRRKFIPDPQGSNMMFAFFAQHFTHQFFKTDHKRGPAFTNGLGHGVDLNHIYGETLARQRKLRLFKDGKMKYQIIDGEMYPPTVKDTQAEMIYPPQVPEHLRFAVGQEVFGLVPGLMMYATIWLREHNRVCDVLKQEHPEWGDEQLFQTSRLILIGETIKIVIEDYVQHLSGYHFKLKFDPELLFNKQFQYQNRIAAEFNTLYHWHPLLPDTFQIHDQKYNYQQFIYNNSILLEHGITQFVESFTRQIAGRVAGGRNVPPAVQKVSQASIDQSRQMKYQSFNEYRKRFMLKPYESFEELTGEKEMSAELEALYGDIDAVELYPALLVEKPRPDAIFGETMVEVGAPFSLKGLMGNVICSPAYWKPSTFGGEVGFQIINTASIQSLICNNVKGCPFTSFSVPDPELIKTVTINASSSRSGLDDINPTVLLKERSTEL
Experiment: Cell-free COXs activity assay, COX-2
Type: biochemical
Conditions: percentage of uninhibited control (100%), n = 3, n.i.: no inhibitory activity observed, read-out: COX-2 residual activity (%)
Recorded remaining activity at 10 µM by entry
Please give a number only; it is taken to be in %.

See these solved cases before continuing.
# Compound, remaining activity at 10 µM / %
rows = [
    ("Nc1ccccc1-c1ccc(-c2nnc(NC(=O)c3c(Cl)ccnc3Cl)s2)cc1 [compound 9]", 72.7),
    ("Nc1ccccc1-c1ccc(-c2nnc(NC(=O)c3ccccc3Br)s2)cc1 [compound 7]", 194),
]

Consider the compound Cc1cc(C(=O)Nc2nnc(-c3ccc(-c4ccccc4N)cc3)s2)cc(Cl)n1 [compound 6] and give its measured remaining activity at 10 µM. 83.1

Moving on to the next compound: O=C(Nc1nnc(-c2ccc(-c3cccc(O)c3)cc2)s1)c1ccccc1Br [compound 3] 65.4
